Species: Rattus norvegicus
procedure_details: Maximum antagonist effect (% effect) expressed relative to 8-hydroxy-DPAT (100%)
Assay type: functional
Lab note: compare Max effect against 80%. Equal or greater, write true. Smaller, write false.

Previously resolved entries follow.
c1ccc2c(c1)CC2CCCCN1CCN(c2cccc3c2OCCO3)CC1 (stereo not given): true
COc1ccccc1N1CCN(C[C@@H](C(=O)NC(C)(C)C)c2ccccc2)CC1: false
c1ccc2c(c1)CCC2CN1CCN(c2cccc3c2OCCO3)CC1 (stereo not given): false

Prompt line: hey, is Max effect for this one >= 80%? c1ccc2c(c1)CC2CCCN1CCN(c2cccc3ccoc23)CC1 (stereo not given)
Response line: false

Prompt line: What about this molecule? c1ccc2c(c1)CC2CCN1CCN(c2cccc3c2OCCO3)CC1 (stereo not given)
Response line: false

Prompt line: # repeat for `COc1ccccc1N1CCN(CCCCN2C(=O)c3ccccc3C2=O)CC1`
Response line: false

====

Record set of ID50 for target or system D(2) dopamine receptor (Rattus norvegicus) (UniProt P61169).

Below, 5 compounds whose answers are already recorded.
COc1cc2c(cc1OC)C(CCN1CCN(c3cccc4c3OCCO4)CC1)C2 (stereo not drawn): > 40 mg/kg
c1ccc2c(c1)CC(CCCN1CCN(c3cccc4c3OCCO4)CC1)C2: > 40 mg/kg
c1ccc2c(c1)CCC2CCCN1CCN(c2cccc3c2OCCO3)CC1 (stereo not drawn): > 40 mg/kg
c1ccc2c(c1)CCCCC2CCN1CCN(c2cccc3c2OCCO3)CC1 (stereo not drawn): > 10 mg/kg
c1ccc2c(c1)CC2CCCN1CCN(c2cccc3c2OCCO3)CC1 (stereo not drawn): 1.7 mg/kg

Prompt line: Record request: ID50 value, item `COc1ccccc1N1CCN(C[C@@H](C(=O)NC(C)(C)C)c2ccccc2)CC1`
Response line: > 40 mg/kg

Prompt line: `COc1cc2nc(N3CCN(C(=O)c4ccco4)CC3)nc(N)c2cc1OC` , same question.
Response line: > 10 mg/kg

Prompt line: Next entry: `c1ccc2c(c1)CC(CCN1CCN(c3cccc4c3OCCO4)CC1)C2`
Response line: 5.9 mg/kg

Prompt line: Also need Fc1cccc2c1CC2CN1CCN(c2cccc3c2OCCO3)CC1 (stereo not drawn) , thanks.
Response line: > 40 mg/kg

Prompt line: What about `c1ccc2c(c1)CC(CN1CCN(c3cccc4c3OCCO4)CC1)C2` ?
Response line: > 40 mg/kg

Prompt line: Now give it for `C1=C(CCN2CCN(c3cccc4c3OCCO4)CC2)c2ccccc2CCC1` too.
Response line: 40 mg/kg

Prompt line: Can you check Clc1cccc2c1CC2CCCN1CCN(c2cccc3c2OCCO3)CC1 (stereo not drawn) next?
Response line: 40 mg/kg

Prompt line: Moving on to the next compound: COc1ccc2c(c1)C(CCN1CCN(c3cccc4c3OCCO4)CC1)C2 (stereo not drawn)
Response line: > 40 mg/kg

Prompt line: Moving on to the next compound: `c1ccc2c(c1)CC(N1CCN(c3cccc4c3OCCCO4)CC1)C2`
Response line: > 40 mg/kg

Prompt line: Also check c1ccc2c(c1)CC2CCN1CCN(c2cccc3c2OCCO3)CC1 (stereo not drawn)
Response line: > 40 mg/kg

Prompt line: Now the compound `COc1ccccc1N1CCN(CCN2C(=O)CC3(CCCC3)CC2=O)CC1`
Response line: 0.65 mg/kg

Prompt line: Queued: c1ccc2c(c1)CC2CN1CCN(c2cccc3c2OCCO3)CC1 (stereo not drawn)
Response line: > 40 mg/kg

Prompt line: Also, `C1=C(CCN2CCN(c3cccc4c3OCCO4)CC2)c2ccccc2CC1` please.
Response line: > 40 mg/kg

Prompt line: What would you report for c1ccc2c(c1)CC2CCCCN1CCN(c2cccc3c2OCCO3)CC1 (stereo not drawn) ?
Response line: > 40 mg/kg

Prompt line: Similarly, c1ccc2c(c1)CCC2CN1CCN(c2cccc3c2OCCO3)CC1 (stereo not drawn) ?
Response line: > 40 mg/kg

Prompt line: For `c1ccc2c(c1)CC(N1CCN(c3cccc4c3OCCO4)CC1)C2` then?
Response line: > 40 mg/kg

Prompt line: And `C1=C(CCN2CCN(c3cccc4c3OCCO4)CC2)c2ccccc2C1` ?
Response line: > 40 mg/kg

Prompt line: Same read-out for c1ccc2c(c1)CC2CN1CCN(c2cccc3c2OCCCO3)CC1 (stereo not drawn) ?
Response line: > 40 mg/kg

====

target_or_system: 5-hydroxytryptamine receptor 1B (Rattus norvegicus, UniProt P28564)
Sequence (P28564 whole entry): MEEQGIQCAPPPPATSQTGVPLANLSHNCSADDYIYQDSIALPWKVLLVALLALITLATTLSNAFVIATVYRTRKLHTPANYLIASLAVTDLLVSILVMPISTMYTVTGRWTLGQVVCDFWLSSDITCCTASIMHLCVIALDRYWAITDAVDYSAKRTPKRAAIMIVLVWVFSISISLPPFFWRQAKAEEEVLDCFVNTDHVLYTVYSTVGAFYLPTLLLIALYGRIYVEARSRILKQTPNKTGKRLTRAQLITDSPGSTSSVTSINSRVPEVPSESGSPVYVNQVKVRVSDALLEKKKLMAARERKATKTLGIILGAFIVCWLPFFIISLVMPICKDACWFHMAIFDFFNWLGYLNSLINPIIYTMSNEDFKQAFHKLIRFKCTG
procedure_details: Binding affinity at 5-hydroxytryptamine 1B receptor
test_readout: pKi
The scale used: pKi is minus the common logarithm of the concentration in molar units.

Below, 5 molecules whose answers are already recorded.
c1ccc2c(c1)CCCC2CCN1CCN(c2cccc3c2OCCO3)CC1 (stereo unspecified): 6.15
c1ccc2c(c1)CC2CCCN1CCN(c2cccc3ccoc23)CC1 (stereo unspecified): 5.85
c1ccc2c(c1)CC2CCCN1CCN(c2cccc3c2OCCO3)CC1 (stereo unspecified): 6.19
Fc1cccc2c1CC2CN1CCN(c2cccc3c2OCCO3)CC1 (stereo unspecified): 6.50
COc1cc2c(cc1OC)C(CCN1CCN(c3cccc4c3OCCO4)CC1)CC2 (stereo unspecified): 6.17

We next turn to a different molecule, shown below.
Prompt line: # lookup: pKi of `C1=C(CCN2CCN(c3cccc4c3OCCO4)CC2)c2ccccc2CC1`
Response line: 6.64

====

Item-by-item account of Ki
target_or_system: 5-hydroxytryptamine receptor 1B (Rattus norvegicus)
State the answer as a number, implicitly in nM.

Take a look at these entries with their results.
c1ccc2c(c1)CC2CCCN1CCN(c2cccc3c2OCCCO3)CC1 (stereo unspecified): 617
c1ccc2c(c1)CCCCC2CCN1CCN(c2cccc3c2OCCO3)CC1 (stereo unspecified): 776
c1ccc2c(c1)CC(N1CCN(c3cccc4c3OCCCO4)CC1)C2: 1410
c1ccc2c(c1)CC2CN1CCN(c2cccc3c2OCCO3)CC1 (stereo unspecified): 214

Prompt line: // query Ki value for entry `c1ccc2c(c1)CC(CCCN1CCN(c3cccc4c3OCCO4)CC1)C2`
Response line: 1860

Prompt line: Another compound to look at: c1ccc2c(c1)CCC2CN1CCN(c2cccc3c2OCCO3)CC1 (stereo unspecified)
Response line: 200

====

This section lists ID50 readings for D(2) dopamine receptor (Rattus norvegicus) (UniProt P61169).
Just the number in mg/kg, nothing appended.

COc1ccccc1N1CCN(CCCCN2C(=O)c3ccccc3C2=O)CC1 [NAN-190]: 10
c1ccc2c(c1)CCCC2CCN1CCN(c2cccc3c2OCCO3)CC1 (stereo not given): 40

Prompt line: Quick one: ID50 for COc1cc2c(cc1OC)C(CCN1CCN(c3cccc4c3OCCO4)CC1)CC2 (stereo not given) ?
Response line: 40

Prompt line: Another: c1ccc2c(c1)CC2CCN1CCN(c2cccc3c2OCCCO3)CC1 (stereo not given)
Response line: 30

====

Species: Rattus norvegicus
procedure_details: Maximum antagonist effect (% effect) expressed relative to 8-hydroxy-DPAT (100%)
Assay type: functional
Use yes when the recorded Max effect is no lower than 90%; use no when it is lower.

COc1cc2c(cc1OC)C(CCN1CCN(c3cccc4c3OCCO4)CC1)CC2 (centres undefined): no
Fc1cccc2c1CC2CN1CCN(c2cccc3c2OCCO3)CC1 (centres undefined): no
c1ccc2c(c1)CC2CN1CCN(c2cccc3c2OCCO3)CC1 (centres undefined): no
c1cc2c(c(N3CCNCC3)c1)OCCO2: no
c1ccc2c(c1)CC2CCCN1CCN(c2cccc3c2OCCCO3)CC1 (centres undefined): no
c1ccc2c(c1)CCCCC2CCN1CCN(c2cccc3c2OCCO3)CC1 (centres undefined): yes

Prompt line: Confirm if Max effect reported for the molecule c1ccc2c(c1)CCC2CCN1CCN(c2cccc3c2OCCO3)CC1 (centres undefined) is 90% or above.
Response line: yes

Prompt line: Another: c1ccc2c(c1)CC2CCN1CCN(c2cccc3c2OCCCO3)CC1 (centres undefined)
Response line: no

Prompt line: Also check `c1ccc2c(c1)CC(N1CCN(c3cccc4c3OCCCO4)CC1)C2`
Response line: no

====

Species: Rattus norvegicus
procedure_details: Maximum antagonist effect (% effect) expressed relative to 8-hydroxy-DPAT (100%)
Assay type: functional
test_readout: Max effect (%)
Just the number please, in %, no unit attached.

The following molecules have reported results that may help.
C1=C(CCN2CCN(c3cccc4c3OCCO4)CC2)Cc2ccccc21: 81
c1ccc2c(c1)CC(N1CCN(c3cccc4c3OCCO4)CC1)C2: 95
C1=C(CCN2CCN(c3cccc4c3OCCO4)CC2)c2ccccc2C1: 94
Clc1cccc2c1CC2CCCN1CCN(c2cccc3c2OCCO3)CC1 (stereo not given): 60
c1ccc2c(c1)CC2CCN1CCN(c2cccc3ccoc23)CC1 (stereo not given): 91

Prompt line: What value of measured Max effect is listed for `c1ccc2c(c1)CC(CCN1CCN(c3cccc4c3OCCO4)CC1)C2` ?
Response line: 100

Prompt line: Next record, please: `c1ccc2c(c1)CC(CN1CCN(c3cccc4c3OCCO4)CC1)C2`
Response line: 87

Prompt line: Now this one: COc1cc2c(cc1OC)C(CCN1CCN(c3cccc4c3OCCO4)CC1)C2 (stereo not given)
Response line: 96

Prompt line: Another molecule to look at: Clc1cccc2c1CC2CCN1CCN(c2cccc3c2OCCO3)CC1 (stereo not given)
Response line: 96

Prompt line: // query: c1ccc2c(c1)CC2CN1CCN(c2cccc3ccoc23)CC1 (stereo not given)
Response line: 96

Prompt line: Can you check c1ccc2c(c1)CCCC2CCN1CCN(c2cccc3c2OCCO3)CC1 (stereo not given) next?
Response line: 70

Prompt line: Moving on to the next molecule: COc1ccc2c(c1)C(CCN1CCN(c3cccc4c3OCCO4)CC1)C2 (stereo not given)
Response line: 95

Prompt line: What do we get for COc1ccccc1N1CCN(CCN2C(=O)CC3(CCCC3)CC2=O)CC1 [BMY-7378] ?
Response line: 64

Prompt line: Now consider c1ccc2c(c1)CC2CCCN1CCN(c2cccc3c2OCCO3)CC1 (stereo not given) .
Response line: 75

Prompt line: Try this molecule too: c1ccc2c(c1)CCC2CCCN1CCN(c2cccc3c2OCCO3)CC1 (stereo not given)
Response line: 81

Prompt line: Record: Clc1cccc2c1CC2CN1CCN(c2cccc3c2OCCO3)CC1 (stereo not given)
Response line: 100

Prompt line: Next entry: `C1=C(CCN2CCN(c3cccc4c3OCCO4)CC2)c2ccccc2CC1`
Response line: 100

Prompt line: Another molecule: c1ccc2c(c1)CC2CN1CCN(c2cccc3c2OCCCO3)CC1 (stereo not given)
Response line: 91

Prompt line: Same question for `c1ccc2c(c1)CC(CCCN1CCN(c3cccc4c3OCCO4)CC1)C2` please.
Response line: 70

Prompt line: Another molecule to look at: `C1=C(CCN2CCN(c3cccc4c3OCCO4)CC2)c2ccccc2CCC1`
Response line: 55

All values here come from ChEMBL document CHEMBL1128459.
